Data provenance is the supplement of paper PMC10567573.

B1: INTS3 (parent)
chain: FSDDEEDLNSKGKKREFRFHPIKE

Variants of: B1
Assay: protein stability index of a GFP-peptide fusion (GPS, HEK-293T) (PSI 1-6); higher = more stable;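 further: lentivirally expressed fusions sorted by FACS into six bins by GFP to DsRed ratio, PSI derived from sequencing read proportions per bin multiplied by bin number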
Settings: c terminus: a fixed tail appended
Decide using protein stability index: a value greater than or equal to 3 is Satisfied, a smaller one is Not satisfied.

{"Variant name": "F19C", "Label value": "Satisfied"}
{"Variant name": "E24H", "Label value": "Not satisfied"}
{"Variant name": "S10R", "Label value": "Not satisfied"}

Query: Can K11I be said to have protein stability index at or above 3?
Result: Satisfied

Query: Moving on to G12C
Result: Not satisfied

Query: Moving on to S10L
Result: Not satisfied

Query: Moving on to K14Q
Result: Satisfied

Query: Moving on to R15C
Result: Satisfied

Query: Moving on to D4C
Result: Not satisfied

Query: Moving on to K11D
Result: Satisfied
